B1: TPR t1 (parent)
chain: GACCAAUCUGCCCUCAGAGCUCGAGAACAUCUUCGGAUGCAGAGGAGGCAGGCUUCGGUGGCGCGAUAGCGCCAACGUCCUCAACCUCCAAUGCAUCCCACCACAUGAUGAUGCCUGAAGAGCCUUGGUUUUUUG

Variants of: B1
method-notes: polymerase ribozyme fitness, log enrichment relative to wild type (log ratio); higher = more active; in vitro selection for triplet polymerase activity
Parameter threshold = -3. Response is true when polymerase ribozyme fitness (log ratio) meets or exceeds it, else false.

>>> category_label("C34U C62U")
"false"
>>> category_label("U9G G19U G45U C114A")
"true"
>>> category_label("G35C C73A")
"false"
>>> category_label("G48A C56G")
"true"
>>> category_label("A46C C89A")
"false"
>>> category_label("U7A G48C C85U G120C")
"true"

Entry G17U C73G C124G G128C : is its polymerase ribozyme fitness (log ratio) no less than -3?
true

Entry U33A A37C : is its polymerase ribozyme fitness (log ratio) no less than -3?
false

Entry C11A G48A C70U C114U : is its polymerase ribozyme fitness (log ratio) no less than -3?
false

Entry G71A G127C : is its polymerase ribozyme fitness (log ratio) no less than -3?
true
